This listing pairs compounds with measured DPPH radical scavenging.
test: Assay for DPPH radical scavenging; conditions: 500 μM; 30 min in the dark
Number plus unit, in that order.

O=C1N=C(Nc2cccc3ccccc23)S/C1=C\c1ccc(O)cc1O ... 51%
O=C1O[C@H]([C@@H](O)CO)C(O)=C1O [Vitamin C, L-ascorbic acid, reference compound] ... 90%

// below: DPPH radical scavenging requested for another compound
# DPPH radical scavenging lookup, item `COc1ccc(/C=C2\SC(Nc3cccc4ccccc34)=NC2=O)cc1O`
21%

* * *

# pKi measurements, system: mushroom tyrosinase (Agaricus bisporus, UniProt C7FF04)
# Sequence (C7FF04 1-392): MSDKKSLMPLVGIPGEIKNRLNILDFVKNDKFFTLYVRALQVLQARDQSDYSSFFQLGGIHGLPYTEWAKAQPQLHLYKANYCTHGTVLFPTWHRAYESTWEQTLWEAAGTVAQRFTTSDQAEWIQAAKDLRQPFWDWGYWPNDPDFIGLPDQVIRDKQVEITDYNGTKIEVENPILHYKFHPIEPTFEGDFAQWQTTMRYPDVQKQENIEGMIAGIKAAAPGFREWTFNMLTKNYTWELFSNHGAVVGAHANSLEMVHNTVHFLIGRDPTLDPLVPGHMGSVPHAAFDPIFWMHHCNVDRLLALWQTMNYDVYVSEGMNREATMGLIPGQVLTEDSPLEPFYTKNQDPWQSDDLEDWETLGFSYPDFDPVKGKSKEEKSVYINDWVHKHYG
Quick note: pKi means taking -log10 of the concentration in moles per liter.

O=C1N=C(Nc2cccc3ccccc23)S/C1=C\c1ccc(O)c(Br)c1 ... 5.31

# pKi lookup, item `O=C1N=C(Nc2cccc3ccccc23)S/C1=C\c1ccc(O)cc1O`
5.69
